Value source: patent US10081624B2

Entries and their measured inhibition at 1 µM follow.
- systemTested: HDAC6 enzyme (Homo sapiens, UniProt Q9UBN7)
- Construct: prepared by transducing full length HDAC1 and HDAC6 genes into Sf-9 insect cells; GST; purchased SignalChem; host or cells: Sf-9 insect cells
- assayExplanation: HDAC6 enzyme inhibitory assay (HDAC-Glo I/II Assay kit)
- Type: biochemical
- experimentalParameters: 1 μM test compound; read-out: HDAC6 inhibitory rate (%) (1 μM)
Give your result in % as a bare value.

Here are 4 compounds together with their reported answers.
>>> df
                                   compound                              systemtested  numericresult
0  O=C(NCC1COCCN1C(=O)c1ccccc1)c1ccc(-c2noc(C(F)(F)F)n2)s1 (single isomer, unassigned) [Example 257]  HDAC6 enzyme (Homo sapiens, UniProt Q9UBN7)             97
1  Cc1nc2sccn2c1C(=O)N1CCOC[C@@H]1CNC(=O)c1ccc(-c2noc(C(F)(F)F)n2)cc1  HDAC6 enzyme (Homo sapiens, UniProt Q9UBN7)             98
2  Cn1nc2ccccc2c1C(=O)N1CCOC[C@H]1CNC(=O)c1ccc(-c2noc(C(F)(F)F)n2)cc1  HDAC6 enzyme (Homo sapiens, UniProt Q9UBN7)             92
3  O=C(NC[C@H]1COCCN1C(=O)C1CCCO1)c1ccc(-c2noc(C(F)(F)F)n2)cc1 (stereo partly drawn)  HDAC6 enzyme (Homo sapiens, UniProt Q9UBN7)             88

(Q) Record request: inhibition at 1 µM value, item Cn1nc(C(F)(F)F)cc1C(=O)N1CCOCC1CNC(=O)c1ccc(-c2noc(C(F)(F)F)n2)s1 (stereo not drawn)
(A) 92

(Q) Record request: inhibition at 1 µM value, item O=C(NCC1COCCN1C(=O)c1ccccc1F)c1ccc(-c2noc(C(F)(F)F)n2)cc1 (stereo not drawn)
(A) 99

(Q) Record request: inhibition at 1 µM value, item Cn1nc2ccccc2c1C(=O)N1CCOCC1CNC(=O)c1ccc(-c2noc(C(F)(F)F)n2)cc1 (stereo not drawn)
(A) 99

---

Entries and their measured inhibition at 1 µM follow.
- systemTested: HDAC6 enzyme (Homo sapiens, UniProt Q9UBN7)
- Construct: prepared by transducing full length HDAC1 and HDAC6 genes into Sf-9 insect cells; GST; purchased SignalChem; host or cells: Sf-9 insect cells
- Sequence (Q9UBN7 1-1215): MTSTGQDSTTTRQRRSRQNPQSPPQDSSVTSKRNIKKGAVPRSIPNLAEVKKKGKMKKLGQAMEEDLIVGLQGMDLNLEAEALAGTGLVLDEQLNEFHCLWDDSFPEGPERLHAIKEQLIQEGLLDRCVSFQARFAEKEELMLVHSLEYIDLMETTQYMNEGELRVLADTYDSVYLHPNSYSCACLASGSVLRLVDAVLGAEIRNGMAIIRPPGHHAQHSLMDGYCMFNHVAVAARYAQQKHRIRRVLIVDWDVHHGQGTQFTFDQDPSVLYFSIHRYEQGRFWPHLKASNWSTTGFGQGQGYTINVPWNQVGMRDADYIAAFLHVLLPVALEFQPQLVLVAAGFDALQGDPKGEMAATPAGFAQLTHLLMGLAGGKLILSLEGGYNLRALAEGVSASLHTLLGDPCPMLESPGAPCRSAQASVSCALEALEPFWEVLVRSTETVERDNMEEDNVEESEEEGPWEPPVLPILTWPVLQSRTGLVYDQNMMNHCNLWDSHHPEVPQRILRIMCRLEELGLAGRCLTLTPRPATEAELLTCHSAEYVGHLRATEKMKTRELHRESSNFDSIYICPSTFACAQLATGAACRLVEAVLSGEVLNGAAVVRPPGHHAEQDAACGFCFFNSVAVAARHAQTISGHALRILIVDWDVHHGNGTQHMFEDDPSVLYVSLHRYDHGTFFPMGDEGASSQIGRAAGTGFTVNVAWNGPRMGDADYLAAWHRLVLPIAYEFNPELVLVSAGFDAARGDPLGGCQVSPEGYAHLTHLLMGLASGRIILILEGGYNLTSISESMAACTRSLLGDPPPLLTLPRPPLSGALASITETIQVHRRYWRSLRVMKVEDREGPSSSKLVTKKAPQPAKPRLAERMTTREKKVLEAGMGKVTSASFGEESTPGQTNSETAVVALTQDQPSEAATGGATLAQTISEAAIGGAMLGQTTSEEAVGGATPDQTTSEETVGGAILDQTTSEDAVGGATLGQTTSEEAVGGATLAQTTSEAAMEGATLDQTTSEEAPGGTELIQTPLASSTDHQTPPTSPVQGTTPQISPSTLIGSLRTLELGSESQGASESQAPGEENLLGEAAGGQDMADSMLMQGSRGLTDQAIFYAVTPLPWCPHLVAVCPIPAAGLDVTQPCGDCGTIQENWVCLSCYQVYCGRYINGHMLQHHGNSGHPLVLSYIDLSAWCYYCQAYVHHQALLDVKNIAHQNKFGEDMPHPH
- assayExplanation: HDAC6 enzyme inhibitory assay (HDAC-Glo I/II Assay kit)
- Format: biochemical
- experimentalParameters: 1 μM test compound; read-out: HDAC6 inhibitory rate (%) (1 μM)

>>> print(df.to_string())
                                   molecule  result
0  Cc1ccc(C(=O)N2CCOC[C@@H]2CNC(=O)c2ccc(-c3noc(C(F)(F)F)n3)cc2)s1 [Example 72]     89%

(Q) Value wanted: inhibition at 1 µM (HDAC6 enzyme (Homo sapiens, UniProt Q9UBN7)) of entry O=C(NC[C@H]1COCCN1C(=O)N1CCC[C@@H]1CO)c1ccc(-c2noc(C(F)(F)F)n2)cc1 [Example 108]
(A) 100%

(Q) Value wanted: inhibition at 1 µM (HDAC6 enzyme (Homo sapiens, UniProt Q9UBN7)) of entry Cc1ccc(C(=O)N2CCOCC2CNC(=O)c2ccc(-c3noc(C(F)(F)F)n3)cc2)cc1 (stereo not shown) [Example 11]
(A) 99%

(Q) Value wanted: inhibition at 1 µM (HDAC6 enzyme (Homo sapiens, UniProt Q9UBN7)) of entry CN(C(=O)N1CCOCC1CNC(=O)c1ccc(-c2noc(C(F)(F)F)n2)cc1)c1ccccc1 (stereo in doubt) [Example 98]
(A) 98%
